assayedTarget: human IKK-2 (rhIKK-2 homodimer) (Homo sapiens, UniProt O14920)
Construct: FLAG (DYKDDDDKD) (C); made in house; host or cells: insect cells (baculovirus, pFastBac)
Sequence (O14920 whole entry): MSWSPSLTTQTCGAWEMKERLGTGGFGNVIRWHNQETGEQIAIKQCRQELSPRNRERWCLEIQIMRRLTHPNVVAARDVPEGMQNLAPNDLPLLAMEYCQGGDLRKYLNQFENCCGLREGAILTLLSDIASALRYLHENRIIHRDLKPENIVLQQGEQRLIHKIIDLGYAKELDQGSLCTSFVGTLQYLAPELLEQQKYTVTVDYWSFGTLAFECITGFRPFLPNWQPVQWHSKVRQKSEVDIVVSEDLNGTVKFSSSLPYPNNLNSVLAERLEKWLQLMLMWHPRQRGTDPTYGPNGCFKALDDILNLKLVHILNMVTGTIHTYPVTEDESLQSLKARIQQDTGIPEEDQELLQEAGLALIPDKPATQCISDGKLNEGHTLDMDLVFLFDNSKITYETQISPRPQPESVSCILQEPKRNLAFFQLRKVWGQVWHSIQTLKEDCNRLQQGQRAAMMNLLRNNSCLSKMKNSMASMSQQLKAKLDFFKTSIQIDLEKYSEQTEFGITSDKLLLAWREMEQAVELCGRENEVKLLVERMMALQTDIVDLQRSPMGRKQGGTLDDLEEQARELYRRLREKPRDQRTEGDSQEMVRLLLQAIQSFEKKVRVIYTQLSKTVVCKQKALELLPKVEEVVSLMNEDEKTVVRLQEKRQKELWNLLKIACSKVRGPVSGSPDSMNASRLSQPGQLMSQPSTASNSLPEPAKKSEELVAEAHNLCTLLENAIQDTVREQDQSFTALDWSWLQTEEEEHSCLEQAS
experiment: IKK-2 Resin Enzyme Assay (Human IKK-2 Enzyme Assay)
Assay type: biochemical
conditionContext: human IKK-2, resin enzyme assay; read-out: IC50 (μM) hIKK-2
Answer each item with its documented IC50.

// known answers, use as guide
NC(=O)Nc1cn(-c2cccc(-c3ccccc3)c2)nc1C(N)=O = > 20 µM
NC(=O)Nc1cn(-c2ccc(-c3ccc(CO)cc3)cc2)nc1C(N)=O = 0.83 µM

Give IC50 for each of the items listed below.
1. Cc1ccc(-c2cccc(-n3cc(NC(N)=O)c(C(N)=O)n3)c2)cc1N
2. COc1ccc(Cc2cccc(-n3cc(NC(N)=O)c(C(N)=O)n3)c2)cc1OC
3. CSc1cccc(-c2cccc(-n3cc(NC(N)=O)c(C(N)=O)n3)c2)c1

Resp:
0.8 µM
6.36 µM
> 20 µM

====

assayedTarget: Rat IKK-2 (Rattus norvegicus)
Sequence (Q9QY78 1-757): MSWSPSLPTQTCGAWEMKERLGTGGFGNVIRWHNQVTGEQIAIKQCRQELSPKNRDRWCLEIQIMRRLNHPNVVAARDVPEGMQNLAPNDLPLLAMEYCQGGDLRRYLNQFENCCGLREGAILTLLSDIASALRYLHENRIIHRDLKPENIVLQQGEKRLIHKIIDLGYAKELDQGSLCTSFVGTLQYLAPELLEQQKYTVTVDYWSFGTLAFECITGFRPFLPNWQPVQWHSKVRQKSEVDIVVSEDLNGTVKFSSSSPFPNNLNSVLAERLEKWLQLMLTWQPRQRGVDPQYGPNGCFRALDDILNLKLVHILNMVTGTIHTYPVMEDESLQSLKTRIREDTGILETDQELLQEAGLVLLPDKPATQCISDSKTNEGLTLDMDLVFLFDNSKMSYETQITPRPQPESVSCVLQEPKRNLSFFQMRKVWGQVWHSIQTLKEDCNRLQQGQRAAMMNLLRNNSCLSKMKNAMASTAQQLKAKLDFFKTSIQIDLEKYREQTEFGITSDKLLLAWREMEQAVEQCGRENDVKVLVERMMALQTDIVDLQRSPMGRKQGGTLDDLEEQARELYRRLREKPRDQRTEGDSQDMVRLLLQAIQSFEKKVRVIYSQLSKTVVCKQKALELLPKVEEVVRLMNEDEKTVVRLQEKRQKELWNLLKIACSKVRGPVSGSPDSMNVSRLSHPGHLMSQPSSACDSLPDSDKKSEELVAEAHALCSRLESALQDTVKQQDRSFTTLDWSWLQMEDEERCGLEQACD
experiment: Rat IKK-2 enzyme assay
Type: biochemical
conditionContext: read-out: IC50 (μM) rIKK-2
Answer each item with its documented IC50.
Report field: quantity (unit follows the number).

NC(=O)Nc1cn(-c2ccc(-c3ccc(C(=O)OCc4ccc(F)cc4)c(F)c3)cc2)nc1C(N)=O [Example 164] = 7.27 µM
NC(=O)Nc1cn(-c2ccc(OC(F)(F)F)cc2)nc1C(N)=O [Example 328] = 0.446 µM
N#CCOc1cc(F)ccc1-c1ccc(-n2cc(NC(N)=O)c(C(N)=O)n2)cc1 [Example 173] = 0.105 µM
NC(=O)Nc1cn(-c2ccc(-c3ccc(C(=O)OCc4cccc(F)c4)c(F)c3)cc2)nc1C(N)=O [Example 163] = 17.4 µM
Cc1cc(I)ccc1-n1cc(NC(N)=O)c(C(N)=O)n1 [Example 4] = 1.93 µM

Give IC50 for each of the items listed below.
1. NC(=O)Nc1cn(-c2ccc(S(=O)(=O)c3ccccc3F)cc2)nc1C(N)=O [Example 194]
2. NC(=O)Nc1cn(-c2ccc(-c3ccc(F)cc3O)cc2)nc1C(N)=O [Example 98]

Resp:
1: 0.173 µM; 2: 0.668 µM

Give IC50 for each of the items listed below.
1. N#CCOc1ccc(F)cc1-c1ccc(-n2cc(NC(N)=O)c(C(N)=O)n2)cc1 [Example 172]
2. Cc1cc(-n2cc(NC(N)=O)c(C(N)=O)n2)ccc1S(=O)(=O)c1cccc(F)c1 [Example 312]
3. NC(=O)Nc1cn(-c2ccc(S(=O)(=O)c3ccc(F)cc3)cc2)nc1C(N)=O [Example 204]
4. CNC(=O)Nc1cn(-c2cccc(Br)c2)nc1C(N)=O [Example 15]
5. N#CCOc1ccc(F)cc1-c1cccc(-n2cc(NC(N)=O)c(C(N)=O)n2)c1 [Example 94]
6. NC(=O)Nc1cn(-c2ccc(-c3cc4ccccc4[nH]3)cc2)nc1C(N)=O [Example 141]

Resp:
["0.033 µM", "0.975 µM", "0.023 µM", "4.45 µM", "0.22 µM", "4 µM"]

Give IC50 for each of the items listed below.
1. N#Cc1ccc(-c2ccc(-n3cc(NC(N)=O)c(C(N)=O)n3)cc2)cc1 [Example 100]
2. NC(=O)COc1cccc(-c2ccc(-n3cc(NC(N)=O)c(C(N)=O)n3)cc2)c1 [Example 175]
3. Cc1cc(-n2cc(NC(N)=O)c(C(N)=O)n2)ccc1OCc1ccccc1 [Example 307]
4. Cc1cc(-n2cc(NC(N)=O)c(C(N)=O)n2)ccc1F [Example 304]
5. NC(=O)Nc1cn(-c2ccc(-c3ccc(-c4nnn[nH]4)cc3)cc2)nc1C(N)=O [Example 187]
6. NC(=O)Nc1cn(-c2ccc(Sc3ccccn3)cc2)nc1C(N)=O [Example 205]

Resp:
0.171 µM
0.181 µM
6.44 µM
0.547 µM
0.441 µM
0.258 µM

Give IC50 for each of the items listed below.
1. NC(=O)Nc1cn(-c2ccc(Br)c(C(F)(F)F)c2)nc1C(N)=O [Example 1]
2. NC(=O)Nc1cn(-c2ccc(S(=O)(=O)C3CCCCC3)cc2)nc1C(N)=O [Example 192]
3. CCOc1cc(-n2cc(NC(N)=O)c(C(N)=O)n2)ccc1Br [Example 3]

Resp:
0.108 µM
0.297 µM
0.787 µM

====

assayedTarget: human IKK-2 (rhIKK-2 homodimer) (Homo sapiens, UniProt O14920)
Construct: FLAG (DYKDDDDKD) (C); made in house; host or cells: insect cells (baculovirus, pFastBac)
experiment: IKK-2 Resin Enzyme Assay (Human IKK-2 Enzyme Assay)
Type: biochemical
conditionContext: human IKK-2, resin enzyme assay; read-out: IC50 (μM) hIKK-2
Answer each item with its documented IC50.
Answers are plain numbers, in µM.

// known answers, use as guide
NC(=O)Nc1cn(-c2cccc(-c3cccc(C(N)=O)c3)c2)nc1C(N)=O = 5.67
CCCNC(=O)c1ccc(-c2cccc(-n3cc(NC(N)=O)c(C(N)=O)n3)c2)cc1 = 0.48
CCOc1cc(-n2cc(NC(N)=O)c(C(N)=O)n2)ccc1Br = 1.35

Next:
IC50 reading for NC(=O)COc1ccc(F)cc1-c1ccc(-n2cc(NC(N)=O)c(C(N)=O)n2)cc1 : 0.492

====

assayedTarget: human IKK-2 (rhIKK-2 homodimer) (Homo sapiens, UniProt O14920)
Construct: FLAG (DYKDDDDKD) (C); made in house; host or cells: insect cells (baculovirus, pFastBac)
experiment: IKK-2 Resin Enzyme Assay (Human IKK-2 Enzyme Assay)
Assay type: biochemical
conditionContext: human IKK-2, resin enzyme assay; read-out: IC50 (μM) hIKK-2
Answer each item with its documented IC50.
Answers are plain numbers, in µM.

NC(=O)Nc1cn(-c2ccc(Sc3ccccc3F)cc2F)nc1C(N)=O = 10.5
NC(=O)Nc1cn(-c2ccc(-c3ccc(CN4CCOCC4)cc3)cc2)nc1C(N)=O = 4.21
NC(=O)Nc1cn(-c2ccc(-c3ccc(F)cc3O)cc2)nc1C(N)=O = 1.04

Give IC50 for each of the items listed below.
1. Cc1cc(-n2cc(NC(N)=O)c(C(N)=O)n2)ccc1Sc1ccc(F)cc1
2. N#CCCNC(=O)c1cccc(-c2cccc(-n3cc(NC(N)=O)c(C(N)=O)n3)c2)c1
3. NCc1ccc(-c2cccc(-n3cc(NC(N)=O)c(C(N)=O)n3)c2)cc1
4. NC(=O)Nc1cn(-c2ccc(Br)cc2)nc1C(N)=O

Resp:
1. 1.94
2. 1.19
3. 4.86
4. 0.31

# lookup: CSc1ccc(-c2ccc(-n3cc(C(N)=O)c(NC(N)=O)n3)cc2)cc1 on human IKK-2 (rhIKK-2 homodimer) (Homo sapiens, UniProt O14920), IC50 = 0.664

====

Answer each item with its documented IC50.
assayedTarget: human IKK-2 (rhIKK-2 homodimer) (Homo sapiens)
Construct: FLAG (DYKDDDDKD) (C); made in house; host or cells: insect cells (baculovirus, pFastBac)
experiment: IKK-2 Resin Enzyme Assay (Human IKK-2 Enzyme Assay)
Format: biochemical
conditionContext: human IKK-2, resin enzyme assay; read-out: IC50 (μM) hIKK-2

Give IC50 for each of the items listed below.
1. NC(=O)Nc1cn(-c2cccc(-c3ccc(F)cc3)c2)nc1C(N)=O
2. NC(=O)Nc1cn(-c2cccc(-c3ccc(F)c(Cl)c3)c2)nc1C(N)=O
3. CN(Cc1ccc(F)cc1)C(=O)c1ccc(-c2ccc(-n3cc(NC(N)=O)c(C(N)=O)n3)cc2)cc1F
4. NC(=O)Nc1cn(-c2ccc(-c3cc4ccccc4[nH]3)cc2)nc1C(N)=O
5. COC(=O)c1ccc(-n2cc(NC(N)=O)c(C(N)=O)n2)cc1

Resp:
["9.22 µM", "> 20 µM", "4.04 µM", "11.4 µM", "5.49 µM"]
